target: human A2a receptor (Homo sapiens, UniProt P29274); construct: purchased Perkin-Elmer RBHA2AM400UA; host or cells: HEK293 cells, used as a membrane preparation; assay: A2a receptor competition binding assay (Scintillation Proximity); details: membranes from HEK293 cells expressing human A2a receptor; 0.5 nM tritiated ligand; Cheng-Prusoff; read-out: A2a Ki
Sequence (P29274 whole entry): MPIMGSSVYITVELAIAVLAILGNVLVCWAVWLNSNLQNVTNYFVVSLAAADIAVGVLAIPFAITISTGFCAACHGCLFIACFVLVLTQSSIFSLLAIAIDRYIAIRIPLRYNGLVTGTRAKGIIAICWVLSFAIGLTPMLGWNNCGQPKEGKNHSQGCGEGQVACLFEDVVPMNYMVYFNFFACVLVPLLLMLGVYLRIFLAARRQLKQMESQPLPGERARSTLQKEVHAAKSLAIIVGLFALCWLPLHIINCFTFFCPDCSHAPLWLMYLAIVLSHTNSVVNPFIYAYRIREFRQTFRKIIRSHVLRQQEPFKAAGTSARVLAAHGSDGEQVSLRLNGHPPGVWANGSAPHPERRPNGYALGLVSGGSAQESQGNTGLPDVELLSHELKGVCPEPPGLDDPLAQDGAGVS
metric: pKi
Here pKi is given on a logarithmic scale as minus log10 of the concentration in mol/L.

INPUT: GET /values?readout=pKi&item= Nc1nc2c(F)cccc2c2nc(Cc3cccc4c3CCN(CCc3ccccn3)C4)cn12
OUTPUT: 7.74

INPUT: GET /values?readout=pKi&item= Nc1nc2ccccc2c2nc(C(=O)NCc3ccc(F)cc3F)cn12
OUTPUT: 7.47

INPUT: GET /values?readout=pKi&item= Nc1nc2c(F)cccc2c2nc(Cc3cccc(C(=O)Nc4ccccn4)c3)cn12
OUTPUT: 8.01

INPUT: GET /values?readout=pKi&item= CCn1cc(-c2cccc3c2nc(N)n2cc(Cc4ccccc4)nc32)cn1
OUTPUT: 6.12

INPUT: GET /values?readout=pKi&item= COc1cccc2c1nc(N)n1cc(C(=O)N3C[C@@H]4[C@@H]5CC[C@@H](C5)[C@@H]4C3)nc21
OUTPUT: 8.19

INPUT: GET /values?readout=pKi&item= COc1ccc(N2CCN(CCc3cn(Cc4cn5c(N)nc6c(F)cccc6c5n4)nn3)CC2)cc1
OUTPUT: 7.02

INPUT: GET /values?readout=pKi&item= Nc1nc2c(F)cccc2c2nc(CC3CCN(Cc4cccnc4)CC3)cn12
OUTPUT: 6.51

INPUT: GET /values?readout=pKi&item= CS(=O)(=O)Nc1nc2c(F)cccc2c2nc(-c3ccccc3CN3CCN(c4ccccn4)CC3)cn12
OUTPUT: 6.89

INPUT: GET /values?readout=pKi&item= COc1cccc2c1nc(N)n1cc(C(=O)N3CCCC(OC)C3)nc21 (centres unmarked) [Ex-169]
OUTPUT: 7.47

INPUT: GET /values?readout=pKi&item= CCCN1CCC2(CCN(C(=O)c3cn4c(N)nc5c(F)cccc5c4n3)CC2)C1
OUTPUT: 6.37

INPUT: GET /values?readout=pKi&item= COc1cccc2c1nc(N)n1cc(C(=O)c3ccccc3)nc21
OUTPUT: 7.58

INPUT: GET /values?readout=pKi&item= COc1cccc2c1nc(N)n1cc(C(=O)N3C(C)CCC3C)nc21 (centres unmarked)
OUTPUT: 8.21

INPUT: GET /values?readout=pKi&item= Nc1nc2ccccc2c2nc(C(=O)N3CCN(c4ccc(F)cc4F)CC3)cn12
OUTPUT: 5.00

INPUT: GET /values?readout=pKi&item= Nc1nc2c(F)cccc2c2nc(Cc3cccc4c3OCCN4C(=O)Cc3ccccn3)cn12
OUTPUT: 7.89

Source listed as patent US11498923B2.
